Target: JAK1 (Homo sapiens (Human), UniProt P23458)
Assay: JAK1 enzyme assay (Assay Example^b 1)
Conditions: IC50 (μM) JAK1, Table^b 78; ATP 100 μM
Doc: threshold 0.1 µM (exclusive). Items with IC50 beneath it return rule met; others return rule not met.

compound	group
O=c1ncn(C2CCCCC2)c2c1cnc1[nH]ccc12	rule met
O=c1ccn(C2CCCCC2)c2c1cnc1[nH]ccc12	rule met
c1cc2c3c(cnc2[nH]1)COCN3C1CCCCC1	rule not met
O=c1ccn(C2CCCCC2)c2c1cnc1[nH]cnc12	rule not met
C[C@@H]1CCN(C(=O)CC2CC2)C[C@@H]1n1ccc(=O)c2cnc3[nH]ccc3c21 (racemic)	rule met

Q: Hi there! Is IC50 for CC1OCN(C2CCCCC2)c2c1cnc1[nH]ccc21 (stereo not shown) below 0.1 µM, do you know?
Result: rule not met

Q: Hi there! Is IC50 for O=S1(=O)C=CN(C2CCCCC2)c2c1cnc1[nH]ccc21 below 0.1 µM, do you know?
Result: rule not met

Q: Hi there! Is IC50 for C[C@@H]1CCN(C(=O)CC#N)C[C@@H]1N1COCc2cnc3[nH]ccc3c21 (racemic) below 0.1 µM, do you know?
Result: rule met

Q: Hi there! Is IC50 for C[C@@H]1CCN(C(=O)CC#N)C[C@@H]1n1ccc(=O)c2cnc3[nH]ccc3c21 (racemic) below 0.1 µM, do you know?
Result: rule met

Q: Hi there! Is IC50 for C[C@@H]1CCN(C(=O)CC(F)(F)F)C[C@@H]1n1ccc(=O)c2cnc3[nH]ccc3c21 (racemic) below 0.1 µM, do you know?
Result: rule met
